Assignment: determine reported TGI for the given compounds.
Tested on: OVCAR-3 ovarian
experiment: NCI tumour cell line growth inhibition, 48 h
One number for each entry, in µM.

As a guide, the following entries are already answered.
>  <structure>
Cc1nc(Nc2ccccn2)sc1C(=O)/C=C/c1ccc(Cl)cc1

>  <units>
µM

>  <TGI>
5.48

$$$$
>  <structure>
Cc1cc2c([nH]c3ccccc32)c(O)c1-c1c(C)cc2c([nH]c3ccccc32)c1O

>  <units>
µM

>  <TGI>
29.3

$$$$
>  <structure>
COc1ccc(-c2oc3cc(O)cc(O)c3c(=O)c2OC)cc1

>  <units>
µM

>  <TGI>
60.9

$$$$

Field: TGI. Fill in for each record below.
1. COc1cnc2c(c1)C(=O)c1c-2n(CCCNCCO)c(=O)c2ccncc12
2. CC(C)(C)OC(=O)NCCCn1c2c(c3ccccc3c1=O)C(=O)c1ccccc1-2
3. O=C([O][Sn]([O]C(=O)c1ccccn1)([c]1ccccc1)[c]1ccccc1)c1ccccn1

Found:
[9.73, 26.3, 2.98]

Batch of 2 compounds: report TGI for each.
1. C=CC(=O)Nc1cc(N2CCN(CC)CC2)ccc1Nc1cc(N(C)C(=O)Nc2c(Cl)c(OC)cc(OC)c2Cl)ncn1
2. Cc1c(-c2ccnc(N)n2)c2c(n1Cc1ccccc1)C(=O)c1ccccc1C2=O

Found:
[15.4, 21.3]

---

Tested on: SN12K1 renal
experiment: NCI tumour cell line growth inhibition, 48 h
property.measured: TGI (µM)
One number for each entry, in µM.

>  <compound>
CC(C)=CCC(OC(=O)C=C(C)C)C1=CC(=O)c2c(O)ccc(O)c2C1=O (centres undefined)

>  <TGI, µM>
2.93

$$$$

Lookup: Entry COc1cccc(N[C@@H]2c3cc4c(cc3C(c3cc(OC)c(O)c(OC)c3)[C@H]3C(=O)OCC32)OCO4)c1 (some centres undefined) has what TGI?
Found: 9.55

---

System: BT-549 breast
experiment: NCI tumour cell line growth inhibition, 48 h
property.measured: TGI

>  <compound>
COc1ccc2[nH]c(O)c(/C=c3/cc4c(c(-c5ccc(F)c(OC)c5)n3)=Nc3ccccc3-4)c2c1

>  <TGI>
3.91 µM

$$$$

Take each entry in turn and give its TGI.
1. C=C1C(=O)OC2CC(C)C3CC(O)OC(OCC)C3(C)CC12 (configuration not stated)
2. COc1ccc(-c2nc(-c3nc4ccc(F)cc4[nH]3)c3ccccn23)cc1
3. CC(C)(C)[Si](C)(C)OCc1cccc(OCCOc2cccc(CO[Si](C)(C)C(C)(C)C)c2[N+](=O)[O-])c1[N+](=O)[O-]
4. Cc1nc(N)c(N2CCN(CN)CC2)c(=O)[nH]1

Found:
1. > 58.4 µM
2. 22.9 µM
3. > 100 µM
4. > 100 µM

# batch: return TGI for each of the 2 compounds below
1. CN1CC2=C(NC(=S)NC2c2ccccc2)/C(=C/c2ccccc2)C1 (configuration not stated)
2. COc1ccc(C(=O)CC(c2ccccc2)[C@H]2C(c3ccc(OC)cc3)=Nc3c(nc(SC)n(C)c3=O)NC2c2ccccc2)cc1 (some centres not stated)

Found:
1: > 100 µM; 2: > 100 µM

---

I'd appreciate it if you could supply TGI values for the items below.
System: ACHN renal
experiment: NCI tumour cell line growth inhibition, 48 h
Give bare numbers, in µM.

Record excerpt, results attached:
>  <compound>
CCOC(=O)N1CCc2cc(OC)c(OC)cc2/C1=C\c1ccc(OC)c(OC)c1

>  <property.measured>
TGI

>  <numeric.value>
94

$$$$
>  <compound>
COc1cc2c(cc1OCCCCCCN1CCN(CC(=O)Nc3ccc(Cl)cc3C(=O)c3ccccc3Cl)CC1)N=CC1CCCN1C2=O (stereo not given)

>  <property.measured>
TGI

>  <numeric.value>
0.765

$$$$
>  <compound>
O=c1[nH]c2ccccc2n1CCCN1CCC(n2c(=O)[nH]c3cc(Cl)ccc32)CC1

>  <property.measured>
TGI

>  <numeric.value>
32.9

$$$$

Okay, next one:
Lookup: Data request, read-out TGI, for `COc1cc(NC(=O)CCSc2nc3ccc(C)cc3c(=O)n2Cc2ccccc2)cc(OC)c1OC`
Found: 34.9

---

Tested on: CAKI-1 renal
experiment: NCI tumour cell line growth inhibition, 48 h
property.measured: TGI (µM)
One number for each entry, in µM.

>  <compound>
CC(C)C(C/C=C1\CC(CO)(COC(=O)C2CCCCC2)OC1=O)C(C)C (stereo unspecified)

>  <TGI, µM>
43.8

$$$$

# return TGI for each item in the list
1. CCN=C1C=CC(=C(c2ccc(N(CC)CC)cc2)c2ccc(N(CC)CC)cc2)c2ccccc21
2. COc1ccc2cc(CNCCCCCCNCc3ccc4cc(OC)ccc4c3)ccc2c1

Found:
[0.273, 2.71]

---

Test system: T-47D breast
experiment: NCI tumour cell line growth inhibition, 48 h; in the data active means GI50 below about 0.43 µM; inactive means the rest
Respond using exactly one of the listed classes: 1 (yes) for active, 0 (no) for inactive

>  <compound>
Cc1nc2c(n1C)C(=O)c1ccccc1C2=O

>  <class>
0 (no)

$$$$

Lookup: Entry `Cc1c(-c2ccnc(N)n2)c2c(n1Cc1ccccc1)C(=O)c1ccccc1C2=O` : call = ?
Found: 0 (no)

Lookup: For COc1cc2c(cc1OCCCCCCN1CCN(CC(=O)Nc3ccc(Cl)cc3C(=O)c3ccccc3Cl)CC1)N=CC1CCCN1C2=O (configuration not stated) , what call appears in the results of this test?
Found: 1 (yes)

Lookup: Status in this test for `COc1ccc(-c2nc(-c3nc4ccc(F)cc4[nH]3)c3ccccn23)cc1` ?
Found: 0 (no)

---

Test system: HCC-2998 colon
experiment: NCI tumour cell line growth inhibition, 48 h
property.measured: TGI (µM)
Give bare numbers, in µM.

>  <molecule>
CC(=O)OCC(=O)[C@@]12OC(C)(C)O[C@@H]1C[C@H]1[C@@H]3CC(C=O)=C4C=C(OCCCl)CC[C@]4(C)[C@@]3(F)[C@@H](O)C[C@@]12C

>  <numeric.value>
29.5

$$$$

State recorded TGI for all listed molecules.
1. COc1ccc2[nH]c(O)c(/C=c3/cc4c(c(-c5ccc(F)c(OC)c5)n3)=Nc3ccccc3-4)c2c1
2. Cc1c(C(=O)OCc2ccccc2)[n+](=O)c2cc(Cl)c(Cl)cc2n1[O-]
3. CC(=O)NC1C(OCc2ccccc2)OC(CO)C(O)C1OC(C)C(=O)NC(C(=O)NC(CCC(=O)NCCCCNc1c2ccccc2nc2cccc([N+](=O)[O-])c12)C(N)=O)C(C)C (stereo not given)
4. C=CC(=O)Nc1cc(N2CCN(CC)CC2)ccc1Nc1cc(N(C)C(=O)Nc2c(Cl)c(OC)cc(OC)c2Cl)ncn1
5. O=C1/C(=C/c2ccccc2)CN(C(=O)CCN2CCCC2)C/C1=C\c1ccccc1
6. C=CCC1C(O[Si](C)(C)C(C)(C)C)C(CO[Si](C)(C)C(C)(C)C)OC1n1ccc(=O)[nH]c1=O (stereo not given)
7. COc1ccc(C(SC2C(O)C(CO)OC2n2ccc(=O)[nH]c2=O)(c2ccccc2)c2ccc(OC)cc2)cc1 (stereo not given)

Found:
[4.62, 28.5, 3.47, 6.3, 3.22, 3.27, 30.3]

---

Tested on: OVCAR-4 ovarian
experiment: NCI tumour cell line growth inhibition, 48 h
Exercise: state measured GI50 for each of the compounds provided.

Some solved cases for reference:
>  <compound>
Cc1ccc(S(=O)(=O)c2nc(-c3ccccc3)oc2S(C)=O)cc1 (stereo not given)

>  <property.measured>
GI50

>  <result>
1.91 µM

$$$$
>  <compound>
COc1cnc2c(c1)C(=O)c1c-2n(CCCNCCO)c(=O)c2ccncc12

>  <property.measured>
GI50

>  <result>
1.38 µM

$$$$
>  <compound>
C=CC(=O)Nc1cc(N2CCN(CC)CC2)ccc1Nc1cc(N(C)C(=O)Nc2c(Cl)c(OC)cc(OC)c2Cl)ncn1

>  <property.measured>
GI50

>  <result>
5.35 µM

$$$$
>  <compound>
COC(=O)COc1ccc(/C=C2/N=C(c3ccccc3)N(c3c(C)n(C)n(-c4ccccc4)c3=O)C2=O)cc1

>  <property.measured>
GI50

>  <result>
26.5 µM

$$$$

// next entry
Lookup: Hello, I am looking for reported GI50 with OVCAR-4 ovarian for `O=C([O][Sn]([O]C(=O)c1ccccn1)([c]1ccccc1)[c]1ccccc1)c1ccccn1` . Could you help?
Found: 7.53 µM

---

Kindly supply the reported TGI values for the records listed here.
System: HT29 colon
experiment: NCI tumour cell line growth inhibition, 48 h

// each listed molecule needs a value for TGI
1. O=c1c(-c2ccccc2)c(SCCO)n(-c2ccccc2)c(=S)n1-c1ccccc1
2. Cc1ccccc1N=C(N)Nc1ccccc1C
3. C[Si](C)(C)/C=C\CCO
4. O=C1NC(=O)C(C(CC(=O)c2ccc(Cl)cc2)c2ccc(Cl)cc2)C(=O)N1 (stereo not given)

Found:
> 100 µM
> 100 µM
> 100 µM
> 100 µM

Could I get TGI for every one of these entries?
1. Cc1cc(OC(=O)NCn2cc(-c3ccccc3)nn2)ccc1Cl
2. O=C(CCN1CCN2c3ccccc3CCC2C1)c1ccc(F)cc1 (stereo not given)

Found:
1. > 100 µM
2. 41.7 µM

// each listed molecule needs a value for TGI
1. COC(=O)C1=C(C(=O)OC)C2(C)C=CC1O2 (stereo not given)
2. C=CCC1C(O[Si](C)(C)C(C)(C)C)C(CO[Si](C)(C)C(C)(C)C)OC1n1ccc(=O)[nH]c1=O (stereo not given)
3. COc1cc(C2C3=C(COC3=O)Oc3cc4c(cc32)OCO4)cc(OC)c1O (stereo not given)
4. CC(=O)NC1C(OCc2ccccc2)OC(CO)C(O)C1OC(C)C(=O)NC(C(=O)NC(CCC(=O)NCCCCNc1c2ccccc2nc2cccc([N+](=O)[O-])c12)C(N)=O)C(C)C (stereo not given)
5. CN(Cc1cnc2nc(N)nc(N)c2n1)c1ccc(C(=O)NC(CO)CCCO)cc1 (stereo not given)
6. CC(C)C(C/C=C1\CC(CO)(COC(=O)C2CCCCC2)OC1=O)C(C)C (stereo not given)
7. NCc1cccc(O)c1O
8. C#CCn1c(=O)c(C)cn(/C(=C\C(=O)OCC)C(=O)OCC)c1=O

Found:
1: 28.5 µM; 2: 2.8 µM; 3: 0.984 µM; 4: 8.71 µM; 5: > 100 µM; 6: 79.5 µM; 7: > 100 µM; 8: 4.03 µM

Value sought for every listed molecule: TGI.
1. Cc1ccccc1-c1nc2c(C(=O)NCCN(C)C)cccc2[nH]1
2. CCOC(=O)c1cc2c([N+](=O)[O-])c(N)ccc2s1
3. O=P1(S)OC[C@H]2O[C@@H]3[C@H](F)[C@@H]2OP(O)(=S)OC[C@H]2O[C@H]([C@H](F)[C@@H]2O1)n1cnc2c(ncnc21)NC/C=C/CNc1ncnc2c1ncn23 (stereo not given in full)
4. CC1=Nc2ccccc2/C1=C\c1c(C)[nH]c2ccccc12
5. O=c1[nH]c2nc(NC3CCOCC3)ncc2cc1Oc1ccc(F)cc1F
6. O=S(=O)(NCn1ccc2ccccc21)c1ccccc1
7. O=c1oc(C(C(F)(F)F)C(F)(F)F)nc2ccccc12
8. O=C1c2c(O)cccc2-c2nn(CCNCCO)c3ccc(NCCNCCO)c1c23

Found:
1. > 100 µM
2. > 100 µM
3. > 100 µM
4. 25.4 µM
5. > 25 µM
6. > 57.2 µM
7. > 100 µM
8. 13.1 µM
